Numbers sourced from patent US7842469B2.

# assay_info: Luciferase activity of purified RLuc mutants (light output integrated over 10 s, luminometer)
# Assay type: biochemical
# details: benzyl-coelenterazine; relative to native enzyme
readout_label: Activity (relative to RLuc) bc
Please state the value as a number alone, without comment.

molecule | reading
C124A/S130A: RLuc mutant C124A/S130A (protein) MASKVYDPEQRKRMITGPQWWARCKQMNVLDSFINYYDSEKHAENAVIFLHGNAASSYLWRHVVPHIEPVARCIIPDLIGMGKSGKSGNGSYRLLDHYKYLTAWFELLNLPKKIIFVGHDWGAALAFHYAYEHQDKIKAIVHAESVVDVIESWDEWPDIEEDIALIKSEEGEKMVLENNFFVETMLPSKIMRKLEPEEFAAYLEPFKEKGEVRRPTLSWPREIPLVKGGKPDVVQIVRNYNAYLRASDDLPKMFIESDPGFFSNAIVEGAKKFPNTEFVKVKGLHFSQEDAPDEMGKYIKSFVERVLKNEQ | 1.4

For the next question, use this molecule.
Enquiry: Looking for the measured Activity (relative to RLuc) bc of C124A/M253L: RLuc mutant C124A/M253L (protein) MASKVYDPEQRKRMITGPQWWARCKQMNVLDSFINYYDSEKHAENAVIFLHGNAASSYLWRHVVPHIEPVARCIIPDLIGMGKSGKSGNGSYRLLDHYKYLTAWFELLNLPKKIIFVGHDWGAALAFHYSYEHQDKIKAIVHAESVVDVIESWDEWPDIEEDIALIKSEEGEKMVLENNFFVETMLPSKIMRKLEPEEFAAYLEPFKEKGEVRRPTLSWPREIPLVKGGKPDVVQIVRNYNAYLRASDDLPKLFIESDPGFFSNAIVEGAKKFPNTEFVKVKGLHFSQEDAPDEMGKYIKSFVERVLKNEQ , can you help?
Return: 1.4
